These entries and their values trace back to the supplement of paper PMC7877785.

- protocol: self-splicing fitness, log relative to wild type (ln ratio); higher = more splicing; Tetrahymena group I intron in knt gene, E. coli kanamycin selection, DiMSum; sequences stand for … in CUCUCU…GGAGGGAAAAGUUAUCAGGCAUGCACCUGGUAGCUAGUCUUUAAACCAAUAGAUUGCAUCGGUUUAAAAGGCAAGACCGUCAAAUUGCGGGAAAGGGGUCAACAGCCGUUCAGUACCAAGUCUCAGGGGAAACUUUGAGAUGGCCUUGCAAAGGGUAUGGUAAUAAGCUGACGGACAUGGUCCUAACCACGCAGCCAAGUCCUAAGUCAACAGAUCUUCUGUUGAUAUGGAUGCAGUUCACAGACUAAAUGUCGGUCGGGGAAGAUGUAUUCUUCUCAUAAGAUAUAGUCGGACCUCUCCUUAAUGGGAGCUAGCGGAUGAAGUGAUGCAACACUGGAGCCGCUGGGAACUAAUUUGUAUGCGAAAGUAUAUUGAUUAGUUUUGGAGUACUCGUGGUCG;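 also: selection with 25 µg/mL kanamycin versus none on LB agar overnight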
- assay.setup: 30 °C
The following sequences are shown together with reported self-splicing fitness (ln) values.

GUCGAGCAAUAUUACGUAUA | -3.54

Could you tell me which self-splicing fitness (ln) is on file for AACAAGCAAUAUUACGGCCA ?
-0.5

Same again, this time with AGGCAGCAAUAUUACGGUCU
-3.15

Same again, this time with GUUGAGCAAUAUUACGUGGC
-3.09

Same again, this time with CUGUAGCAAUAUUACGUGCU
-2.94

Same again, this time with AACAAGCAAUAUUACGGUAA
-1.83

Same again, this time with UGAGAGCAAUAUUACGCUAA
-2.28

Same again, this time with GCGAAGCAAUAUUACGCAUG
-3.12

Same again, this time with CUGCAGCAAUAUUACGUAUU
-4.27

Same again, this time with AACUAGCAAUAUUACGCCGC
-2.1
